test system: SW-620 colon; test: NCI tumour cell line growth inhibition, 48 h
REPORTED_METRIC: GI50

Examples with answers:
N[C@@H]1CCCN(c2c(/C=C3\SC(=O)NC3=O)cccc2-c2ccccc2)C1; 12.8 µM
COc1ccc(Cn2cc3c(c2-c2cc(OC)c(OC)c(OC)c2)CCc2cnoc2-3)cc1[N+](=O)[O-]; 0.482 µM

[in] Look up and report GI50, with SW-620 colon as system, for COc1ccc(-c2csc(-c3cc(Cl)cc(Cl)c3Cl)n2)cc1
[out] 42.4 µM

---

tested on: MDA-N; test: NCI tumour cell line growth inhibition, 48 h
Each item that follows carries a reported TGI.

[in] Return value of TGI for input Cc1ccc(S(=O)(=O)N2CCCC2C(=O)O[C@H]2CC[C@H]3CC=C[C@H]32)cc1 (stereo partly drawn) , no commentary.
[out] > 100 µM

[in] Specify measured TGI for COc1ccc(C(=O)/C=C/c2ccc(OCC(=O)N3CCN(c4ccccc4)CC3)cc2)cc1 .
[out] > 100 µM

[in] Name the recorded TGI of the item O=C(c1cccc(C(=O)c2ccc3c4c(cccc24)C(=O)N(c2ccccc2)C3=O)c1)c1ccc2c3c(cccc13)C(=O)N(c1ccccc1)C2=O in your answer.
[out] > 100 µM

---

test system: CCRF-CEM leukemia; assay: NCI tumour cell line growth inhibition, 48 h
REPORTED_METRIC: TGI

Recorded results for 2 compounds are shown here.
CSc1nc2[nH]c(=O)c(C)nc2c(=O)[nH]1; > 100 µM
NC(Cc1ccccc1)(C(=O)O)C(=O)O; > 100 µM

[in] Tell me TGI reported for Cc1ccc(S(=O)(=O)Oc2nc3ccccc3nc2N(S(=O)(=O)c2ccc(C)cc2)S(=O)(=O)c2ccc(C)cc2)cc1
[out] > 100 µM

[in] Give reported TGI value for COc1ccc(C(=O)c2cc3c(N)c(C(=O)Nc4cccc(Cl)c4C)sc3nc2C)cc1
[out] > 25 µM

[in] Look up TGI of O=c1cc(-c2ccc(Cl)cc2)oc2cc(OCCCOc3ccc4c(=O)cc(-c5ccc(Cl)cc5)oc4c3)ccc12 and report it.
[out] > 100 µM

[in] Specify measured TGI for C=CCNC1=C2C[C@@H](C)C[C@@H](OC)[C@H](OC(=O)CN)[C@H](C)/C=C(\C)[C@@H](OC(N)=O)[C@H](OC)/C=C\C=C(/C)C(=O)NC(=CC1=O)C2=O .
[out] > 29.8 µM

---

# TGI listing for each entry below
tested on: LOX IMVI melanoma; assay: NCI tumour cell line growth inhibition, 48 h

CC(=O)NNc1nc(C)c(C(/C=C/c2ccc(Cl)cc2)=N/NC(=O)C[N+](C)(C)C)s1; > 100 µM
NC(=Nc1ccc(O)cc1)S(=O)O; > 100 µM

[in] Quick one: give measured TGI for CCOC(=O)Nc1ccc(-c2nc(-c3cccc(OC)c3)c(-c3ccnc(Br)c3)[nH]2)cc1
[out] 3.32 µM

---

system: SK-MEL-2 melanoma; assay: NCI tumour cell line growth inhibition, 48 h; in the data active = GI50 below about 0.43 µM; inactive = the rest
Valid outcomes are listed here; reply with one: class 1 (active), class 0 (inactive)

Example entries and their recorded answers appear below.
Cc1nc(N)sc1C(=O)Nc1cc(C(=O)NCCCN(C)C)n(C)c1; class 0
O=C1c2c(O)cc(O)cc2OC(c2ccc(O)cc2O)C1O (configuration not stated); class 0

[in] Test call, this compound: Cc1nc2n(c(=O)c1CCN1CCC(c3noc4cc(F)ccc34)CC1)CCCC2
[out] class 0

[in] Given CN(CCCl)c1ccc(/C=C/C2=[N+](C)c3ccccc3C2(C)C)cc1 , state the outcome it received in this test.
[out] class 0

[in] GET /call?item= O=C(O)C1(Cc2cccc(Nc3nccs3)n2)CCC(Oc2cccc(Cl)c2F)CC1 (configuration not stated) returns the recorded outcome of this test.
[out] class 0

[in] In this assay, the call recorded for O=C1CCc2c(sc3[nH]c(=S)n(Cc4ccccc4)c(=O)c23)C1 was what?
[out] class 0

[in] In this assay, the call recorded for CCC1CCc2nc3sc(C(=O)Nc4ccccc4C)c(N)c3cc2C1 (configuration not stated) was what?
[out] class 0
